# TARGET_OR_SYSTEM: Calcitonin gene-related peptide type 1 receptor (Homo sapiens, UniProt O60894+Q16602)
# Sequence (Q16602 whole entry, one chain of several): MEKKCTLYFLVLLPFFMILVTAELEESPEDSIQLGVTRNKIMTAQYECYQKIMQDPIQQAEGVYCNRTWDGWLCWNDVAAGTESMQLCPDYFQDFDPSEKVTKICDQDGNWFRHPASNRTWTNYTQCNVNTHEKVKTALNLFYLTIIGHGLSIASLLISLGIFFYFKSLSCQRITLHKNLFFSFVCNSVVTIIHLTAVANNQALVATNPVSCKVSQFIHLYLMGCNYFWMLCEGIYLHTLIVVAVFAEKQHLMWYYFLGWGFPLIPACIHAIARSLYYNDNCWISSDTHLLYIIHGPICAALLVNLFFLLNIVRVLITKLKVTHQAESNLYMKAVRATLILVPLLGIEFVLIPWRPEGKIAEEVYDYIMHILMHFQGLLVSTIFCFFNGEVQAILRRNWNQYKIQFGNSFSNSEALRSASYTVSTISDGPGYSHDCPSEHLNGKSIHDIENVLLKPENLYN
# PROCEDURE_DETAILS: Antagonist activity at human recombinant CGRP receptor expressed in HEK293 cells assessed as inhibition of CGRP-stimulated increase of intracellular cAMP level in presence of human serum albumin
# Type: functional, cell-based
QUANTITY: Ki (nM)

Use these answered entries as a reference point.
Just so you know, measured Ki for `CCN1CCC(c2cc(Cl)cc(-c3nnc(CC(=O)N4CCC(n5c(=O)[nH]c6ncccc65)CC4)o3)c2)CC1` came out at 15.8

Just so you know, measured Ki for `Cc1ccc(-c2cc(Cl)cc(-c3nnc(CC(=O)N4CCC(n5c(=O)[nH]c6ncccc65)CC4)o3)c2)cn1` came out at 126

Just so you know, measured Ki for `CN1CCC(c2cc(Cl)cc(-c3nnc(CC(=O)N4CCC(n5c(=O)[nH]c6ncccc65)CC4)o3)c2)CC1` came out at 20

Just so you know, measured Ki for `O=C(Cc1nnc(-c2cc(Cl)cc(C3CCN(CC(F)F)CC3)c2)o1)N1CCC(n2c(=O)[nH]c3ncccc32)CC1` came out at 79.4

Just so you know, measured Ki for `O=C(Cc1nnc(-c2cc(Cl)cc(N3CCOCC3)c2)o1)N1CCC(n2c(=O)[nH]c3ncccc32)CC1` came out at 126

[I] Cc1ncc(-c2cc(Cl)cc(-c3nnc(CC(=O)N4CCC(n5c(=O)[nH]c6ncccc65)CC4)o3)c2)n1C
[II] CN(C)CCOc1cc(Cl)cc(-c2nnc(CC(=O)N3CCC(n4c(=O)[nH]c5ncccc54)CC3)o2)c1
[III] CN(C)CCOc1cc(Cl)cc(-c2nnc(CC(=O)N3CCC(N4CCc5ccccc5NC4=O)CC3)o2)c1
[IV] CN1CCN(c2cc(Cl)cc(-c3nnc(CC(=O)N4CCC(n5c(=O)[nH]c6ncccc65)CC4)o3)c2)CC1
Qu. Please list the entries, largest Ki first. Lab note: final answer is the ordered label list.
Ans. I, II, IV, III
(I: 100 nM, II: 50.1 nM, IV: 25.1 nM, III: 15.8 nM)

Ref: ChEMBL document CHEMBL1156894
